method: Covalent inhibition of Escherichia coli beta-glucurodinase
property-name: pIC50
# log scale: pIC50 equals minus log10 of the concentration in mol/L

Reported pIC50 for `Oc1ccccc1-c1nc2cc(Cl)cc(Cl)c2[nH]1` : what is it?
5.35

----------
inhibition by entry:
Test system: Escherichia coli
method: Covalent allosteric inhibition of recombinant Escherichia coli beta-glucuronidase using PNPG as substrate at 10 uM incubated for 30 mins by absorbance based microplate reader assay relative to control

Consider the worked cases shown below.
CNC(=O)c1cc(Oc2ccc(-n3[se]c4ccccc4c3=O)cc2)ccn1
96.2%
CCc1nnc(-n2[se]c3ccccc3c2=O)s1
< 90%
COC(=O)[C@H](CSC)n1[se]c2ccccc2c1=O
> 90%
COc1ccc(-n2[se]c3ccccc3c2=O)cc1
< 90%

Reported inhibition for `O=c1c2ccccc2[se]n1-c1ccccc1` : what is it?
< 90%

Reported inhibition for `O=c1c2ccccc2[se]n1-c1ccc(C(F)(F)F)cc1` : what is it?
< 90%

Reported inhibition for `O=c1[nH][se]c2ccc(C(F)(F)F)cc12` : what is it?
< 90%

Reported inhibition for `O=c1c2ccccc2[se]n1-c1cn[nH]c1` : what is it?
98.3%

Values were extracted from ChEMBL document CHEMBL6182881.
